Origin of the recorded values: patent US20110158985A1

The reader will find reported kon values listed item by item below.
tgt: T1, recombinant C-terminally truncated RSV (A2 strain) F protein (RSV (A2 strain), UniProt P03420 26-524)
T1 construct: extracellular domain; also called truncated F protein; extracellular domain of the F protein from RSV A2
measurementNotes: SPR (BIAcore), Fab over immobilised F
measurementKind: kon (M⁻¹ s⁻¹)

[[record]]
binder = "G93Y Fab (Fab, name in Kabat numbering, V domains shown) VH: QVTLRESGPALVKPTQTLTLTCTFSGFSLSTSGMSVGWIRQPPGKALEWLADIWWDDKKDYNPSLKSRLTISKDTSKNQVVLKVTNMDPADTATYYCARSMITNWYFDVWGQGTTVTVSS VL: DIQMTQSPSTLSASVGDRVTITCSASSSVGYMHWYQQKPGKAPKLLIYDTSKLASGVPSRFSGSGSGTEFTLTISSLQPDDFATYYCFQGSYYPFTFGGGTKVEIK"
measurementkind = "kon"
value = 162000

[[record]]
binder = "S32A Fab (Fab, name in Kabat numbering, V domains shown) VH: QVTLRESGPALVKPTQTLTLTCTFSGFSLSTAGMSVGWIRQPPGKALEWLADIWWDDKKDYNPSLKSRLTISKDTSKNQVVLKVTNMDPADTATYYCARSMITNWYFDVWGQGTTVTVSS VL: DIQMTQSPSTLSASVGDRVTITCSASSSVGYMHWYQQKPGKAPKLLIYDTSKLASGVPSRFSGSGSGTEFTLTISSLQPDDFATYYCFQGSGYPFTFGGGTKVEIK"
measurementkind = "kon"
value = 196000

